# protocol details: Lipid accumulation ratio of the compound at pH 7.4
# Assay type: physicochemical
endpoint label: Ratio
Give the figure only, with no unit attached.

// known answers, use as guide
compound structure: Cc1c(CN2CCCC2)cc(-c2ccc(Cl)cc2)n1Nc1ccnc2cc(Cl)ccc12
endpoint label: Ratio
recorded value: 11481.5

compound structure: Cc1ccc(-c2cc(CN3CCCC3)c(C)n2Nc2ccnc3cc(Cl)ccc23)cc1
endpoint label: Ratio
recorded value: 8128.3

(Q) Recorded Ratio for Cc1c(CN2CCCC2)cc(-c2ccc(Cl)cc2)n1CCCNc1ccnc2cc(Cl)ccc12 , please?
(A) 223.9

(Q) # Ratio lookup, item Cc1c(CN2CCCC2)cc(-c2ccc(C(F)(F)F)cc2)n1Nc1ccnc2cc(Cl)ccc12
(A) 52480.8

(Q) Which measured Ratio value corresponds to Cc1c(CN2CCCC2)cc(-c2ccccc2)n1Nc1ccnc2cc(Cl)ccc12 ?
(A) 1905.5

(Q) Endpoint output: Ratio of Cc1c(CN2CCCC2)cc(-c2ccc(N)cc2)n1Nc1ccnc2cc(Cl)ccc12 . Value?
(A) 107.1

(Q) Any idea what Ratio was measured for Cc1c(CN2CCCC2)cc(-c2ccc(F)cc2)n1Nc1ccnc2cc(Cl)ccc12 ?
(A) 2818.4
